# Test system: RAW264.7
# procedure-summary: Inhibition of ROS production in LPS-induced mouse RAW264.7 cells
# Type: functional, cell-based
measure-name: IC50 (nM)

INSERT INTO measurements (substance_smiles, unit_abbreviation, result_number) VALUES
  ('O=C1/C(=C/c2ccccc2)CCc2ccc(O)cc21', 'nM', 710);

I: O=C1/C(=C/c2ccccc2F)CCc2ccc(O)cc21
II: O=C1/C(=C/c2ccc(Br)cc2)CCc2ccc(O)cc21
input: Among I and II , whose measured IC50 is the smaller figure? I would appreciate it if you answered with the label of your choice.
output: II
(II: 800 nM, I: 1350 nM)
